system: HCT-116 colon; test: NCI tumour cell line growth inhibition, 48 h
Measure: TGI

Reference set (5 entries):
Test Smiles: O=C(O)CCc1ccc2c(c1)CC1(Cc3ccccc3C1)C2
TGI: > 100 µM
//
Test Smiles: COc1ccc2c(CCNC(=O)/C=C/c3ccccc3)c(C(C)=O)[nH]c2c1[N+](=O)[O-]
TGI: 87.2 µM
//
Test Smiles: CC(=O)Oc1cc(OC(C)=O)c2c(C)cc(=O)oc2c1
TGI: > 100 µM
//
Test Smiles: CCOC(=O)C(=CN1CCNC1=S)C(=O)OCC
TGI: > 100 µM
//
Test Smiles: c1csc(-c2ccsc2-c2ccsc2)c1
TGI: > 100 µM

Continue with the compound presented below.
Result for `CCn1c(=O)c2ccccc2n2c(=O)c3cc4ccccc4cc3nc12` , tested on HCT-116 colon, TGI: > 100 µM
